# protein stability index annotations
# Method summary: protein stability index of a GFP-peptide fusion (yeast GPS) (PSI 1-4); higher = more stable; sorted into four equal gates, so the index is relative within each strain
# Conditions: pdr5∆
Reply with just the number.

Please review the entries below; each comes with its answer.
Chain sequence | Metric name | Value measured
FNKSAELSRIENEVENI [YCS4] | protein stability index | 3.4
LLRRLKKDVEKELPDKV [SNF2] | protein stability index | 3.67

Ask | Look up protein stability index: RKLGLLGDKEDEKQSAK [MTW1]
Reply | 3.41

Ask | Which value of protein stability index has been reported for AVSKDPLLTKRKDLRDK [DIS3] in the records?
Reply | 3.41

Ask | Please give the measured protein stability index for this sequence: PYEMYKYVHVSEVGNCS [FAS2]
Reply | 2.53

Ask | Quick one: protein stability index of KGKTPKNAAESSYMGKH [PRP28] ?
Reply | 3.22

Ask | Look up protein stability index for this sequence: VNLPGGILRRKSESDEL [RRP4]
Reply | 3.29

Ask | I have this sequence here, GIVDELAYAVLGIALIA [RPN1] , and I need its recorded protein stability index.
Reply | 1.42

* * *

# Method summary: protein stability index of a GFP-peptide fusion (yeast GPS) (PSI 1-4); higher = more stable; sorted into four equal gates, so the index is relative within each strain
# Conditions: doa10∆
Recorded measurements of protein stability index, one per entry
The reply should be a number, written without any unit.

The cases that follow already have their protein stability index on record.
Chain sequence | protein stability index
IVLSKAASALDEKEKQL [SIR4] | 3.35
SGCDSTKPSLRKASCIW [ECM29] | 2.86
GSKSASKQTPQPKAPRA [ISW2] | 3.08
EFFNPEIFHLLQPLEEG [SIN4] | 1.88
TQKTELEIDNKDSVTEC [SIR4] | 1.74
PSYSPTSPSYSPTSPSY [RPO21] | 2.65
KLFTTNELMRWPIVQKT [RPN5] | 1.79
SKLLREHGYQSRGFEVM [RPB2] | 3.14

Ask | Form field: reported protein stability index of MSSQIIDRPKHELSRAE [SMD2]
Reply | 3.14

Ask | Return reported protein stability index; argument: SPFFVLDEVDAALDITN [SMC1]
Reply | 2.39

Ask | Fill in: protein stability index of EVFIGRVKDQDGRVNRF [YJR042W/NUP85] is ___
Reply | 3.44

* * *

# Method summary: protein stability index of a GFP-peptide fusion (yeast GPS) (PSI 1-4); higher = more stable; sorted into four equal gates, so the index is relative within each strain
# Conditions: doa10∆
I'd appreciate it if you could label each record using protein stability index and these ranges: bottom end (below 2), midrange (2 to below 3), top end (3 or more)

Sample answers from the record:
Chain sequence | Assigned class
STVASALDTNGTSATTE [SIR4] | midrange
TPYSNESGLVNADLDVK [RPO21] | midrange
NKANIQALIHGLNRHYY [RPN11] | midrange
FYLMVSSLSFGPENALN [YJL039C/NUP192] | bottom end
LGKTIQTISLLTYLYEM [SNF2] | bottom end
LLGNCYSLRLINKEIFH [SRB8] | bottom end

Ask | Bin? IKKVICGAWEPAITIEK [SIR3]
Reply | midrange
